# EXPERIMENT: Plasma pharmacokinetics after single 40 mg oral dose (LC-MS/MS, noncompartmental)
# Assay type: in vivo, human
# EXPERIMENTAL_CONDITIONS: human, po, 40 mg, 40 mg single oral dose, empty stomach, read-out: Tmax, Mean (SD)
QUANTITY_MEASURED: Tmax (h)
Supply the numeric figure in h, leaving out any unit text.

q: Which measured Tmax value corresponds to CC(C)n1nc(-c2ccc3oc(N)nc3c2)c2c(N)ncnc21 ?
a: 2.51

----------
# EXPERIMENT: Plasma pharmacokinetics after single 40 mg oral dose (LC-MS/MS, noncompartmental)
# Assay type: in vivo, human
# EXPERIMENTAL_CONDITIONS: human, po, 40 mg, 40 mg single oral dose, empty stomach, read-out: Cmax, Median (range)
QUANTITY_MEASURED: Cmax
Answer with the value and then the unit.

q: Which measured Cmax value corresponds to CC(C)n1nc(-c2ccc3oc(N)nc3c2)c2c(N)ncnc21 ?
a: 317 ng/mL
